Molecular target: T1, cyIL1RAP-His (Lake Pharma) (cynomolgus monkey, UniProt A0A2K5X5J5 21-367)
T1 construct: Bought protein (Lake Pharma, lot 16205819371); also called cynomolgus IL1RAP; monkey IL1RAP; not shown: His tag
T1 sequence: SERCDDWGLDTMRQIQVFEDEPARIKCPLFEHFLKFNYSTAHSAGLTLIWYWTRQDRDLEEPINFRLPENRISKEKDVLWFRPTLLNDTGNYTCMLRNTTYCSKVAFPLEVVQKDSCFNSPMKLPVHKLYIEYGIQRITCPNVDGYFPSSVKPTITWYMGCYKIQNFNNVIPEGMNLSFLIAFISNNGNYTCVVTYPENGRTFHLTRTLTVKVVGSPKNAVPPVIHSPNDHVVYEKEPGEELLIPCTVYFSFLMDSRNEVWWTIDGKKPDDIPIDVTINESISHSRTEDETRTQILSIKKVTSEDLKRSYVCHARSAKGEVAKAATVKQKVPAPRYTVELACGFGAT
Experiment: Octet BLI; mAb captured on anti-mouse IgG Fc sensor; cyIL1RAP-His analyte
# strict inequality: koff < 0.0004 s⁻¹ yields class 1, everything else yields class 0

Consider the following illustrative entries.
Binder: STLX2018 (antibody, V domains shown, Purified from hybridoma of immunized Alivamab mice; intact IgG; captured on anti-mouse IgG Fc sensors in Octet; kappa light chain; also called 74804_18L05A) VH: QVQLVQSGAEVKKPGASVKVSCKTSGYTFTSCCMHWVRQAPGQGLEWMGIINPSVGSTSYAQKFQGIVTMTRDTSTSTVYMELSSLRSEDTAVYYCAVDSSGSRYYYGMDVWGQGTTVTVSS VL: EIVMTQSPATLSVSPGERATLSCRASQSVRSNLAWYQQRPGQAPRLLIYGTSTRATGIPARFSGSGSGTEFTLTISSLQSEDFAVYYCQQYNYWPYTFGQGTKLEIK
Cat: class 0
--
Binder: STLX2005 (antibody, V domains shown, Purified from hybridoma of immunized Alivamab mice; intact IgG; captured on anti-mouse IgG Fc sensors in Octet; kappa light chain; also called 74804_05B24A) VH: EVQLVDSGGGLVKPGGSLRLSCAATGFTFSNVWMSWVRQGSGKGLEWVGRIKSKTDGGTIDYAAPVKGRFTISRDDPKNTLYLQMNSLKTEDTAVYYCTTGELLGFDYWGQGTLVTVSS VL: DIVMTQSPLSLPVTPGEPASISCRSGQSLLHNNGFNCLAWYLQKPGQSPQLLIYLGSNRASGVPDRFSGSGSGTDFTLKISRVEAEDVGVFYCMQTLQTPITFGQGTRLEIK
Cat: class 0
--
Binder: STLX2025 (antibody, V domains shown, Purified from hybridoma of immunized Alivamab mice; intact IgG; captured on anti-mouse IgG Fc sensors in Octet; kappa light chain; also called 74804_25H09A) VH: QVQLVQSGAEVKKPGSSVKVSCKASGDTFSNYAITWVRQAPGQGLEWIVGFSPIFGTANYAQKFQGRVTITADKSTSTAYMELSSLISEDTAVYYCAWGSGNFNWFDPWGQGTLVTVSS VL: AIRMTQSPSSFSASTGDRVTITCRASQGISSYLAWYQQKPGKAPKLLIYAASTLQSGVPSRFSGSGSGTDFTLTISSLQSEDFATYYCQQYYSYPLTFGGGTKVEIK
Cat: class 1

Now consider the entry below.
Query: Check if koff falls below 0.0004 s⁻¹ for STLX2045 (antibody, V domains shown, Purified from hybridoma of immunized Alivamab mice; intact IgG; captured on anti-mouse IgG Fc sensors in Octet; kappa light chain; also called 74804_45C18A) VH: EVQLVESGGGLVKPGGSLRLACAATGFTFSNVWMSWVRQGSGKGLEWVGRIKSKADGGTIDYAAPVKGRFTISRDDSKNTLYLQMNSLKTEDTAMYYCTTGELLGFDYWGQGTLVTVSS VL: DIVMTQSPLSLPVTPGEPASISCRSGQSLLHSNGFNCLAWYLQKPGQSPQLLIYLGSNRASGVPDRFSGSGSGTDFTLKISRVEAEDVGVYYCMQTLQTPITFGQGTRLEIK .
Result: class 1
